# Assayed System: 5HT-Transporter (Homo sapiens)
# Construct: Human platelet membranes (Oceanix Biosciences Corporation, Hanover, Md., USA) were thawed; tissue Oceanix Biosciences Corporation, Hanover, Md., USA; host or cells: human platelet membranes
# Sequence (P31645 whole entry): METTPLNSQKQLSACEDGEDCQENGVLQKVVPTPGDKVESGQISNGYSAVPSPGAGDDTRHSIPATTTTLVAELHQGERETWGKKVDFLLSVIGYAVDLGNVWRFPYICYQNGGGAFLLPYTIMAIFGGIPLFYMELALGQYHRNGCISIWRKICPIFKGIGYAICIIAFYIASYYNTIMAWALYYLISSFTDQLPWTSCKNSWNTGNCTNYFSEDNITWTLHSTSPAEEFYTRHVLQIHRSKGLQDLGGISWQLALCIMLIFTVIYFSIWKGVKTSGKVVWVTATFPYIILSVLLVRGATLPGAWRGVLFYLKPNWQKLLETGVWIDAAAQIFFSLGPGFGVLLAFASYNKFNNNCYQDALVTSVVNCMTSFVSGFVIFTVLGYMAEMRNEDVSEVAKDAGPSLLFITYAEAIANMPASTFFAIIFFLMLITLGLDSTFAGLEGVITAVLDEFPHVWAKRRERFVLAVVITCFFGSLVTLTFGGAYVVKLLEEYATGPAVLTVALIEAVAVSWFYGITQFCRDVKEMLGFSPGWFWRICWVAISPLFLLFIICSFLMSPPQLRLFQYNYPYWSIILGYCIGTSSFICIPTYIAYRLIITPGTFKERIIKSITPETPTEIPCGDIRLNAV
# Procedure Details: Binding experiment for the 5HT-transporter ([3H]paroxetine, human platelet membranes)
# Measurement Conditions: [3H]paroxetine 0.5 nM, read-out: h-5HTT pIC50 (converted)
Recorded Endpoint: IC50 (nM)

[
  {
    "Molecule": "C/C(=C\\c1ccccc1)CN1CCC(Nc2nccn(CC(=O)NCc3ccccc3)c2=O)CC1 [1-48]",
    "Reading": 2000
  },
  {
    "Molecule": "C/C(=C\\c1ccccc1)CN1CCC(Nc2nccn(CCCN(C)Cc3ccccc3)c2=O)CC1 [1-51]",
    "Reading": 1000
  },
  {
    "Molecule": "C/C(=C\\c1ccccc1)CN1CCC(Nc2nccn(CC(=O)N(C)CCc3ccccc3)c2=O)CC1 [1-61]",
    "Reading": 1260
  }
]

1: COc1ccc(Cn2c(-c3cccc(Br)c3)c(Cl)nc(NC3CCN(C/C(C)=C/c4ccccc4)CC3)c2=O)cc1 [17-2]
2: C/C(=C\c1ccccc1)CN1CCC(Nc2nccn(CC(=O)N(CCCN3CCCC3)Cc3ccc(F)cc3)c2=O)CC1 [1-137]
Task: Of 1 and 2 , which carries the smaller reported IC50 figure? Reply briefly: the label of your chosen item.
Output: 2
(2: 1000 nM, 1: 1580 nM)

---

# Assayed System: hα2C receptor (Homo sapiens, UniProt P18825)
# Construct: expressed in transfected cells; host or cells: CHO cells, stably transfected; membrane preparation
# Sequence (P18825 whole entry): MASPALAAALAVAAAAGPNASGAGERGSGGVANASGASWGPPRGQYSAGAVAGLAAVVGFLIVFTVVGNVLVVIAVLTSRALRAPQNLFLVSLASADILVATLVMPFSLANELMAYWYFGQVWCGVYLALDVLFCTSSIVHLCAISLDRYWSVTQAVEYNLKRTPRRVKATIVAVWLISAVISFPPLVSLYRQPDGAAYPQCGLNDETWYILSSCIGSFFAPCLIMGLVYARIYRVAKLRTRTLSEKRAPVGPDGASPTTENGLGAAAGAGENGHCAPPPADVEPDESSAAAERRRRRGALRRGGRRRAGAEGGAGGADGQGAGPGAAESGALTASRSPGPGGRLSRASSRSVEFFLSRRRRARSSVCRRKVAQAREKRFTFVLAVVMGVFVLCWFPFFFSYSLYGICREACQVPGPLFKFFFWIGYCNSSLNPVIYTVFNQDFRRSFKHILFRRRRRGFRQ
# Procedure Details: Radioligand binding experiment for α2C-adrenoceptor ([3H]raulwolscine, CHO cell membranes)
# Measurement Conditions: [3H]raulwolscine binding, read-out: h-α2C pIC50 (converted)
Recorded Endpoint: IC50 (µM)

[
  {
    "Given Smiles": "CCOC(=O)N1CCN(Cc2cccc(-n3ccnc(NC4CCN(C/C(C)=C/c5ccccc5)CC4)c3=O)c2)CC1",
    "Assayed System": "hα2C receptor (Homo sapiens, UniProt P18825)",
    "IC50, µM": 0.01
  },
  {
    "Given Smiles": "C/C(=C\\c1ccccc1)CN1CCC(Nc2nccn(CC(=O)c3cccc(-c4ccccc4)c3)c2=O)CC1",
    "Assayed System": "hα2C receptor (Homo sapiens, UniProt P18825)",
    "IC50, µM": 0.1
  },
  {
    "Given Smiles": "CCOC(=O)Cn1ccnc(NC2CCN(C/C(C)=C/c3ccccc3)CC2)c1=O",
    "Assayed System": "hα2C receptor (Homo sapiens, UniProt P18825)",
    "IC50, µM": 0.0158
  }
]

I: COc1ccc(-c2nnc(Cn3ccnc(N4CCN(C/C(C)=C/c5ccccc5)CC4)c3=O)o2)cc1
II: C/C(=C\c1ccccc1)CN1CCN(c2nccn(CCCN3CCCC3=O)c2=O)CC1
III: C/C(=C\c1ccccc1)CN1CCC(Nc2nccn(CC(=O)NCc3ccco3)c2=O)CC1
IV: C/C(=C\c1ccccc1)CN1CCC(Nc2nccn(Cc3ccc(CNS(C)(=O)=O)cc3)c2=O)CC1
V: COCCN(C)C(=O)Cn1ccnc(NC2CCN(C/C(C)=C/c3ccccc3)CC2)c1=O
Task: Let's sort these by IC50, smallest first. Go ahead? Output spec: a listing of the labels in the requested order.
Output: III, V, IV, I, II
(III: 0.00316 µM, V: 0.00794 µM, IV: 0.0316 µM, I: 0.0631 µM, II: 0.251 µM)

I: COc1cc(CNC(=O)Cn2ccnc(NC3CCN(C/C(C)=C/c4ccccc4)CC3)c2=O)cc(OC)c1
II: C/C(=C\c1ccccc1)CN1CCC(Nc2nccn(Cc3cccc(C(F)(F)F)c3)c2=O)CC1
III: O=c1c(NC2CCN(C/C=C/c3ccccc3)CC2)nccn1Cc1ccccc1Br
Task: List by increasing IC50. Your task in answering is to list the labels in the requested order.
Output: I, II, III

P: C/C(=C\c1ccccc1)CN1CCC(Nc2nccn(CC(=O)Nc3ccc(F)cc3)c2=O)CC1
Q: CSc1ccc(-n2ccnc(NC3CCN(C/C(C)=C/c4ccccc4)CC3)c2=O)cc1
Task: Between the two listed entries P and Q , which has its IC50 at the higher number? Indicate which entry you chose by stating its label.
Output: Q
(Q: 0.00631 µM, P: 0.00398 µM)

P: CC(C)(C)OC(=O)NCc1ccc(Cn2ccnc(NC3CCN(C/C=C/c4ccccc4)CC3)c2=O)cc1
Q: C/C(=C\c1ccccc1)CN1CCC(Nc2nccn(CC(=O)NCC(c3ccccc3)c3ccccc3)c2=O)CC1
Task: Hi there! Just curious which has the higher IC50 between P and Q . Please respond with the label that marks your chosen entry.
Output: P
(P: 0.398 µM, Q: 0.0126 µM)

1: C/C(=C\c1ccccc1)CN1CCC(Nc2nccn(CCCNS(=O)(=O)c3ccccc3)c2=O)CC1
2: C/C(=C\c1ccccc1)CN1CCC(Nc2nccn(-c3ccc(CN(C)Cc4ccccc4)cc3)c2=O)CC1
Task: Out of 1 and 2 , name the one with the higher IC50. Use the label to indicate which entry you chose.
Output: 1
(1: 0.00631 µM, 2: 0.00398 µM)

---

# Assayed System: hα2A receptor (Homo sapiens, UniProt P08913)
# Construct: expressed in transfected cells; host or cells: CHO cells, stably transfected; membrane preparation
# Sequence (P08913 whole entry): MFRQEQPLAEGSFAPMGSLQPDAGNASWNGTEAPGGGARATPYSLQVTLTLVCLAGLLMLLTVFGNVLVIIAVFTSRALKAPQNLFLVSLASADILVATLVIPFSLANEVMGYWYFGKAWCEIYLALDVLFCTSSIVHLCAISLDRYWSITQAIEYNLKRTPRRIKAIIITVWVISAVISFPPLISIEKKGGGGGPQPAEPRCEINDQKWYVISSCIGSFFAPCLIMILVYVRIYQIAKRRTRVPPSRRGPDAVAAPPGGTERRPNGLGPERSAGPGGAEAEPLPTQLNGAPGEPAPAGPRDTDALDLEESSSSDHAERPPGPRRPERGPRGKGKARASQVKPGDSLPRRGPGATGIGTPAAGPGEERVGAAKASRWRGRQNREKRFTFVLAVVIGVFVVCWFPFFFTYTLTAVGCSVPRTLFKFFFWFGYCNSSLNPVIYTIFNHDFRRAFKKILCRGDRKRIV
# Procedure Details: Radioligand binding experiment for α2A-adrenoceptor ([3H]raulwolscine, CHO cell membranes)
# Measurement Conditions: [3H]raulwolscine binding, read-out: h-α2A pIC50 (converted)
Recorded Endpoint: IC50 (nM)

As a guide, the following entries are already answered.
[
  {
    "Given Smiles": "C/C(=C\\c1ccccc1)CN1CCC(Nc2nccn(-c3ccc(NC(=O)CC4CCCC4)cc3)c2=O)CC1",
    "Reading": 251
  },
  {
    "Given Smiles": "C/C(=C\\c1ccccc1)CN1CCN(c2nccn(Cc3ccc(Cl)s3)c2=O)CC1",
    "Reading": 79.4
  }
]

a: COC(=O)Cn1ccnc(NC2CCN(C/C=C/c3ccccc3)CC2)c1=O
b: C/C(=C\c1ccccc1)CN1CCC(Nc2nccn(Cc3ccc(C#N)cc3)c2=O)CC1
Task: Lower value of IC50 belongs to which: a or b ? Write down the label of the entry you select.
Output: b
(b: 501 nM, a: 1000 nM)

P: C/C(=C\c1ccccc1)CN1CCC(Nc2nccn(CCCNC(=O)Nc3ccccc3)c2=O)CC1
Q: CC(C)(C)C(=O)Cn1ccnc(NC2CCN(C/C=C/c3ccccc3)CC2)c1=O
R: C/C(=C\c1ccccc1)CN1CCC(Nc2nccn(-c3ccc(CNCCN(C)C)cc3)c2=O)CC1
Task: Put the items in order so that reported IC50 rises from first to last. Note for the reader: the ranking is given by listing the labels in the order requested.
Output: R, P, Q
(R: 39.8 nM, P: 158 nM, Q: 1000 nM)
